Cmax by entry:
- Procedure Text: Cmax in NSG mouse at 10 mg/kg, ip
- Format: ADME, organism-based
- Set-up: dose 10 mg/kg, route ip
- Condition Context: in vivo
Write down the numeric answer in ng/mL and omit the unit.

Molecule	Value Measured
CNC(=O)c1ccc(N2C(=S)N(c3cnc(C#N)c(C(F)(F)F)c3)C(=O)C23CCC3)cc1F [APALUTAMIDE]	4330
N#Cc1ncc(N2C(=O)C3(CCC3)N(c3ccc(OC4CCN(C(=O)O[C@@H]5CCC[C@]6(C5)OOC5(O6)C6CC7CC(C6)CC5C7)CC4)nc3)C2=S)cc1C(F)(F)F (stereo partly drawn)	641

[ask] Which value of Cmax has been reported for CN(CCN(C)C(=O)O[C@@H]1CCC[C@]2(C1)OOC1(O2)C2CC3CC(C2)CC1C3)C(=O)Oc1ccc(N2C(=S)N(c3ccc(C#N)c(C(F)(F)F)c3)C(=O)C23CCC3)cc1 (stereo partly drawn) in the records?
[reply] 346
